Known EC50 of a selection of molecules
tested on: TNFα production in LPS-stimulated human monocytes; experiment: Cot Monocyte TNFα Cell Based Assay; settings: Homo sapiens, Monocyte, LPS-stimulated human monocytes, TNFα TR-FRET; read-out: EC50 TNF

| MOLECULE | RESULT_COMPARATOR | EC50, nM |
| --- | --- | --- |
| Cc1c(C#N)cccc1[C@H](Nc1cc(C#N)c2ncc(C#N)c(NCC(C)(C)C(F)(F)F)c2c1)c1cn(C2(C3CC3)CC2)nn1 [Example 1152] | = | 49 |
| CC(C)(C)CNc1c(C#N)cnc2c(Cl)cc(N[C@H](c3cn(C4(C(F)F)CC4)nn3)c3cccc(C#N)c3Cl)cc12 [Example 1075] | = | 185 |
| [2H][C@@](Nc1cc(C#N)c2ncc(C#N)c(NCC(C)(C)C)c2c1)(c1cn(C(C)(C)C)nn1)c1ccccc1Cl [Example 1029] | = | 225 |
| [2H]C(Nc1cc(C#N)c2ncc(C#N)c(NCC(C)(C)C)c2c1)(c1cccc(C#N)c1)c1cn(C2(C(N)=O)CC2)nn1 (stereo not drawn) [Example 969] | ≥ | 1000 |
| [2H][C@](Nc1cc(Cl)c2ncc(C#N)c(Nc3cccc(Cl)c3S(C)(=O)=O)c2c1)(c1ccc(F)cc1)c1cn(C2CC2)nn1 [Example 935] | ≥ | 1000 |
| CNC(=O)c1cccc([C@H](Nc2cc(Cl)c3ncc(C#N)c(NCC(C)(C)C)c3c2)c2cn(C3(C(F)(F)F)CC3)nn2)c1F [Example 1114] | = | 408 |
